STUDY TARGET: T1, M2-1 transcription antiterminator (Human respiratory syncytial virus, UniProt P04545 1-194)
T1 sequence: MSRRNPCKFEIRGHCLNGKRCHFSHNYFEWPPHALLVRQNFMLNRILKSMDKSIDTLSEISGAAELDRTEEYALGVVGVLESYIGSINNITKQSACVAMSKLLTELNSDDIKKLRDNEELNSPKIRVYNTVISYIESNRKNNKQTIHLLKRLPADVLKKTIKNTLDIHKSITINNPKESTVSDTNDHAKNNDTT
PROTOCOL TEXT: not stated (EMSA and fluorescence polarization titrations mentioned); Kd may derive from earlier work [37]
CONDITION SET: protein: recombinant; chain copies: 4; label: 5' 6-FAM; single strand
ENDPOINT LABEL: Kd (nM)
Report the figure in nM without appending any unit label.

Reported Kd ( AUAAAGUAGUUAAUUAAAAA (ssRNA) [RNARSV20 (SH gene end 20-mer)] ) = 20
